Please provide measured CYP3A4 for the entries that follow.
- target under test: CYP3A4 (Homo sapiens)
- Construct: human liver microsomes (0.25 mg/mL); from tissue; host or cells: human liver microsomes
- Sequence (P08684 whole entry): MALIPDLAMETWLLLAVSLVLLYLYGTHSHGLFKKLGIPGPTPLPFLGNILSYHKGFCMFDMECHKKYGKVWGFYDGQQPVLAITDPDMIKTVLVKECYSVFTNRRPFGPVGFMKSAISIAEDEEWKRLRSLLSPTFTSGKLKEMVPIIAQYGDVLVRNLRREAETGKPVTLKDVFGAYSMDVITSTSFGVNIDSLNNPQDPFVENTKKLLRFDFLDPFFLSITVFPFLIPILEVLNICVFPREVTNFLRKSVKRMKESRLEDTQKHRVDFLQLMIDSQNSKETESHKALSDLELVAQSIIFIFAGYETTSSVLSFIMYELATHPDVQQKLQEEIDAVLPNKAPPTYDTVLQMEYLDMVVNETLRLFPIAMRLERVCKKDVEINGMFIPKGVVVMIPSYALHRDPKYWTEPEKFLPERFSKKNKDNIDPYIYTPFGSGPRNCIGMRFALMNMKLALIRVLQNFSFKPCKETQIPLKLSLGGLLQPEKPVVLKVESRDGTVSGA
- assay comment: Inhibitory effect on CYP coenzyme activity, human liver microsomes
- Type: in vitro ADME
- conditions used: compound 10 μM; human liver microsomes 0.25 mg/mL; substrate midazolam; 15 minutes
Give the figure by itself; no unit, no explanation.

Task item: What measured CYP3A4 goes with Cc1cc(NN=C(C#N)C#N)ccc1OCc1cnccn1 [Compound 144] ?
Reply: 89.2

Task item: Same thing, different compound: COc1cc(NN=C(C#N)C#N)ccc1OCc1ccccc1 [Compound 153]
Reply: 98.9

Task item: Would you mind doing CC(Oc1ccc(NN=C(C#N)C#N)cc1)c1cccnc1 (stereo not shown) [Compound 140] as well?
Reply: 30.8

Task item: What do we get for COc1cc(NN=C(C#N)C#N)ccc1C(=O)Nc1cnc(C)cn1 [Compound 104] ?
Reply: 66.1

Task item: Thanks! And Cc1cnc(NC(=O)c2ccc(NN=C(C#N)C#N)cc2)cn1 [Compound 45] ?
Reply: 96.7

Task item: Would you kindly repeat that for Cc1cnc(COc2ccc(NN=C(C#N)C#N)cc2)cn1 [Compound 138] ?
Reply: 89.4

Task item: Now the same for Cc1cc(F)cc(C(=O)Nc2ccc(NN=C(C#N)C#N)cn2)c1 [Compound 19]
Reply: 76.5

Task item: Thanks! And N#CC(C#N)=NNc1ccc(OCc2cccnc2)cc1 [Compound 124] ?
Reply: 37.5

Task item: Let us now turn to Cc1cc(NN=C(C#N)C#N)ccc1OCc1ncccn1 [Compound 143]
Reply: 90.3

Task item: Please do the same for Cc1cnc(C(=O)Nc2ccc(NN=C(C#N)C#N)c(F)c2)cn1 [Compound 3] as well.
Reply: 80.8

---

- target under test: tau protein (Homo sapiens, UniProt P10636)
- Construct: fused on or other part: Split fluorescent-protein halves for BiFC are fused to tau; In the published tau-BiFC line these are Venus VN173 and VC155
- Sequence (P10636 2-441 isoform P10636-8 limits assumed): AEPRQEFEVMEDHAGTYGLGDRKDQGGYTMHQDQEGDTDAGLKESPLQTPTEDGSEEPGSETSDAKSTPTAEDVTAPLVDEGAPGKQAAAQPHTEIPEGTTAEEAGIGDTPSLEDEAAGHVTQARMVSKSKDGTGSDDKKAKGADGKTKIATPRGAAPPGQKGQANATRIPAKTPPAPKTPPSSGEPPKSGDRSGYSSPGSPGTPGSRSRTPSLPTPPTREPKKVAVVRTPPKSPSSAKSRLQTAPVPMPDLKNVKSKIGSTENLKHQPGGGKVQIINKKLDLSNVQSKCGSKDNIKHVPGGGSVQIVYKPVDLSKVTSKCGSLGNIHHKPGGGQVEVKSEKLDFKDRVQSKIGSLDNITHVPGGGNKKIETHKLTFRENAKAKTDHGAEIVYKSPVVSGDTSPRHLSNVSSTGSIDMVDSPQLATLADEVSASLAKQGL
- assay comment: Tau-BiFC cell model: inhibition of tau protein aggregation
- Type: cell-based
- conditions used: 48 h; compound 10 μM; BiFC fluorescence, Forskolin-only group = 100% tau protein-aggregated state; read-out: Response (% @10 μM)
- Experimental: In order to select novel tau protein aggregation-inhibiting substances, tau-BiFC cell model, in which formation of tau oligomers in living cells is easily observed, was used. Tau-BiFC cells were aliquoted into a 384-well plate. […] After 48 hours, nuclei in the cells were stained using Hoechst (at a treatment concentration of 2 μg/mL), and BiFC fluorescence intensity was automatically measured using Operetta (PerkinElmer) to count stained nuclei in each well out of the entire well plate. […]
Please go through the items and note down their remaining activity at 10 µM.
The reply should be a number in %, with the unit left off.

Task item: Would you kindly share the measured remaining activity at 10 µM for COc1cc(NN=C(C#N)C#N)ccc1C(=O)Nc1cnc(C)cn1 ?
Reply: 0

Task item: Do the same for N#CC(C#N)=NNc1ccc(NC(=O)c2cocn2)nc1 please
Reply: 0

Task item: Then this compound: Cc1cnc(C(=O)Nc2ccc(NN=C(C#N)C#N)nc2)cn1
Reply: 147

Task item: Again, but for Cc1ccc(C(=O)Nc2ccc(NN=C(C#N)C#N)cn2)cc1F
Reply: 0

Task item: Input CN(N=C(C#N)C#N)c1ccc(Oc2cccc(F)c2)nc1
Reply: 79.9

Task item: Check Cc1cnc(C(=O)Nc2ncc(NN=C(C#N)C#N)cc2C)cn1 too.
Reply: 17.9

Task item: Follow-up entry: N#CC(C#N)=NNc1ccc(NC(=O)c2ccc(C(F)(F)F)cc2)nc1
Reply: 0

Task item: Please answer likewise for Cc1cc(NN=C(C#N)C#N)ccc1Oc1cncnc1
Reply: 0

Task item: Now try Cc1ccc(C(=O)Nc2ccc(NN=C(C#N)C#N)cn2)cc1 .
Reply: 0

Task item: Proceed to N#CC(C#N)=NNc1ccc(NC(=O)c2ccccc2C(F)(F)F)nc1
Reply: 0

Task item: Same read-out for Cc1cncc(NC(=O)c2ccc(NN=C(C#N)C#N)cc2)c1 ?
Reply: 0

---

- target under test: CYP2D6 (Homo sapiens, UniProt P10635)
- Construct: human liver microsomes (0.25 mg/mL); from tissue; host or cells: human liver microsomes
- Sequence (P10635 whole entry): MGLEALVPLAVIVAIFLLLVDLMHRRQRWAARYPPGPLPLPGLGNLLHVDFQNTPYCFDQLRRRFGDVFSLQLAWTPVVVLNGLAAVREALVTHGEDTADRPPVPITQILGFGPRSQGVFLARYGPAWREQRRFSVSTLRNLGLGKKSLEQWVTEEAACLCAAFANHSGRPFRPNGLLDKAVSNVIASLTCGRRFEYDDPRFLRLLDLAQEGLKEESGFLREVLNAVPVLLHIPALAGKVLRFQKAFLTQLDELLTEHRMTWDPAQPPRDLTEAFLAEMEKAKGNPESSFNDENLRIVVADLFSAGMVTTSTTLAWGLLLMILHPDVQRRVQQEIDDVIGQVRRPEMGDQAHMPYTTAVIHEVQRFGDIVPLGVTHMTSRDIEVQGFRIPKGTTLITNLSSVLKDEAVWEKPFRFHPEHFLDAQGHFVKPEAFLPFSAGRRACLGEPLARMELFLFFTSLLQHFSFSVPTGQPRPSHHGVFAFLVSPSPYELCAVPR
- assay comment: Inhibitory effect on CYP coenzyme activity, human liver microsomes
- Type: in vitro ADME
- conditions used: compound 10 μM; human liver microsomes 0.25 mg/mL; substrate dextromethorphan; 15 minutes
recorded metric: CYP2D6
API doc: respond with a numeric literal and nothing else, no unit.

Task item: Can you share its CYP2D6? I mean this molecule: N#CC(C#N)=NNc1ccc(OCc2cccnc2)cc1 [Compound 124]
Reply: 46.6

Task item: Next entry: Cc1cc(F)cc(C(=O)Nc2ccc(NN=C(C#N)C#N)cn2)c1 [Compound 19]
Reply: 73

Task item: Now give it for COc1cc(NN=C(C#N)C#N)ccc1OCc1ccccc1 [Compound 153] too.
Reply: 90.7

Task item: Then COc1cc(NN=C(C#N)C#N)ccc1OCc1cccnc1 [Compound 160] ?
Reply: 59.7

Task item: Also Cc1cnc(C(=O)Nc2ccc(NN=C(C#N)C#N)c(F)c2)cn1 [Compound 3] ?
Reply: 83.6

Task item: Then Cc1cc(NN=C(C#N)C#N)ccc1OCc1cccnc1 [Compound 145] ?
Reply: 39.1

Task item: Now consider Cc1cnc(C(=O)Nc2ccc(NN=C(C#N)C#N)c(C)c2)cn1 [Compound 6] and answer again.
Reply: 75.7

---

- target under test: CYP2C19 (Homo sapiens)
- Construct: human liver microsomes (0.25 mg/mL); from tissue; host or cells: human liver microsomes
- Sequence (P33261 whole entry): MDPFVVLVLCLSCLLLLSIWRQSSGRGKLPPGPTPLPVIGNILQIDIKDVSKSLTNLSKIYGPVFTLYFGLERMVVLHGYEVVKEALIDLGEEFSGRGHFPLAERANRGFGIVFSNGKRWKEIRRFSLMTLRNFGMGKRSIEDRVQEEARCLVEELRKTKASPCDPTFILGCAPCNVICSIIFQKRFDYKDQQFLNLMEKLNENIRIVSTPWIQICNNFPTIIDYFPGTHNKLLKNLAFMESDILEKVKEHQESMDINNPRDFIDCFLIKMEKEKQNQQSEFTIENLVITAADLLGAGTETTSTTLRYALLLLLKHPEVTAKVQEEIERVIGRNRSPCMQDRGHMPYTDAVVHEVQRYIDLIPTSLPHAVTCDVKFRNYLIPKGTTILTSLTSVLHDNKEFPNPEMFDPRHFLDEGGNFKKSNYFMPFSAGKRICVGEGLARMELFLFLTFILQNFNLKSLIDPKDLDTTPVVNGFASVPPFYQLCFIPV
- assay comment: Inhibitory effect on CYP coenzyme activity, human liver microsomes
- Format: in vitro ADME
- conditions used: compound 10 μM; human liver microsomes 0.25 mg/mL; substrate S-mephenytoin; 15 minutes
recorded metric: CYP2C19
// return a plain number; no unit text

Task item: Item under review: N#CC(C#N)=NNc1ccc(NC(=O)c2ccc(C(F)(F)F)cc2)nc1 . Reported CYP2C19?
Reply: 78.3

Task item: Now consider Cc1cnc(C(=O)Nc2ccc(NN=C(C#N)C#N)c(C)c2)cn1 and answer again.
Reply: 64.8

Task item: Now the same for Cc1ccc(C(=O)Nc2ccc(NN=C(C#N)C#N)cn2)cc1
Reply: 82.5

Task item: Queued: N#CC(C#N)=NNc1ccc(OCc2ncccn2)cc1
Reply: 76.5

Task item: Field entry: COc1cc(NN=C(C#N)C#N)ccc1OCc1ccc(C)cc1
Reply: 76.3

Task item: Same lookup for N#CC(C#N)=NNc1ccc(NC(=O)c2ccc(F)cc2)nc1 , please.
Reply: 78.6

---

- Tested on: Tau-BiFC cells
- assay comment: Cell viability (cytotoxicity) in tau-BiFC cells, count of stained nuclei
- Assay type: cell-based
- conditions used: compound 10 μM; Forskolin-only group = 100% cell viability
For each record, write down the corresponding Cell viability (% @10 μM).

Task item: Any idea what its Cell viability (% @10 μM) is? The compound is N#CC(C#N)=NNc1ccc(OCc2ccc(C(F)(F)F)cc2)cc1
Reply: 82.6%

Task item: Quick one: N#CC(C#N)=NNc1ccc(OCc2ncccn2)cc1
Reply: 95.7%

Task item: One more compound: N#CC(C#N)=NNc1ccc(NS(=O)(=O)c2ccccc2)nc1
Reply: 113.5%

Task item: Here is the next compound: Cc1cnc(C(=O)Nc2ncc(NN=C(C#N)C#N)cc2C)cn1
Reply: 122.1%

Task item: Another compound: CN(N=C(C#N)C#N)c1ccc(Oc2ccccc2)c(F)c1
Reply: 91.6%

Task item: Record: N#CC(C#N)=NNc1ccc(Oc2ccccc2C#N)cc1
Reply: 72.6%

Task item: And then CN(N=C(C#N)C#N)c1ccc(Oc2ccccc2)cn1 , what is it?
Reply: 131.4%

Task item: Try this compound too: Cc1ccc(S(=O)(=O)Nc2ccc(NN=C(C#N)C#N)cn2)cc1
Reply: 136.7%

Task item: Query N#CC(C#N)=NNc1ccc(NC(=O)c2cccs2)nc1 next
Reply: 145%

Task item: Queued: N#CC(C#N)=NNc1ccc(OCc2cccnc2)cc1
Reply: 140.9%

---

- assay comment: Liver microsome stability
- Format: in vitro ADME, mouse
- conditions used: amount of substrate remaining; compound 1 μM, 30 minutes, 37° C., NADPH
- Protocol: The stability of liver microsomes due to the compounds prepared according to Examples 1 to 175 was confirmed. […] The amount of the substrate remaining after the reaction was analyzed using the Shimadzu Nexera XR system and TSQ Vantage (Thermo). […]
recorded metric: Mouse (%)

Task item: Recorded Mouse (%) of Cc1cc(NN=C(C#N)C#N)ccc1OCc1cscn1 , please.
Reply: 56.6%

Task item: Another compound: Cc1cc(NN=C(C#N)C#N)ccc1OCc1nc2ccccc2o1
Reply: 41.3%

Task item: Moving on to the next compound: Cc1cnc(NC(=O)c2ccc(NN=C(C#N)C#N)cc2)cn1
Reply: >100%

Task item: # iterate: Cc1cnc(COc2ccc(NN=C(C#N)C#N)cc2C)cn1
Reply: 91.3%

Task item: Please do the same for N#CC(C#N)=NNc1ccc(NC(=O)c2cccc(C(F)(F)F)c2)nc1 as well.
Reply: 7.1%

Task item: Continue with COc1cc(NN=C(C#N)C#N)ccc1OCc1ccc(C(F)(F)F)cc1
Reply: 90.8%

Task item: Can you check N#CC(C#N)=NNc1ccc(NC(=O)c2cccs2)nc1 next?
Reply: 70.7%

Task item: Next entry: Cc1cc(NN=C(C#N)C#N)ccc1OCc1nc2ccccc2[nH]1
Reply: 70.5%

Task item: Thanks! And Cc1cc(NN=C(C#N)C#N)ccc1OCc1cccnc1 ?
Reply: 93.3%
